This collection of values is drawn from ChEMBL document CHEMBL1148543.

- Assayed Target: Mitogen-activated protein kinase kinase kinase 8 (Homo sapiens, UniProt P41279)
- Sequence (P41279 whole entry): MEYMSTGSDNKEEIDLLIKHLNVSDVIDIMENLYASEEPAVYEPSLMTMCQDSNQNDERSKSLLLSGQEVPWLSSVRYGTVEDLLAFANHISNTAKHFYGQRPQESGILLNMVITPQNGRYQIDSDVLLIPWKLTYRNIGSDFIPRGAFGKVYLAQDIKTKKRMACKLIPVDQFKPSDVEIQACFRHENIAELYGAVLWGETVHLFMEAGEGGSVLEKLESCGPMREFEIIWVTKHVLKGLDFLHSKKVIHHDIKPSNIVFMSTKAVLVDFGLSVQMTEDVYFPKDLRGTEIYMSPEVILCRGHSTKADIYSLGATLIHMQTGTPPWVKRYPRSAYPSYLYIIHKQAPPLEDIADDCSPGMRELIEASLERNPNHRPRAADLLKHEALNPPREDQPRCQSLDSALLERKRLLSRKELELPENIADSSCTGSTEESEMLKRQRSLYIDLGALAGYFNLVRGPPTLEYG
- Measurement Description: Inhibitory activity against COT
pIC50: −log10 of the molar value.
Recorded Metric: pIC50

COc1cc(-c2nn([C@H]3CC[C@H](N4CCN(C(C)=O)CC4)CC3)c3ncnc(N)c23)ccc1NC(=O)c1cc2ccccc2n1C    < 4.60

###

- Measurement Description: Oral bioavailability in mouse
- Type: ADME, organism-based
- Particulars: in vivo
Recorded Metric: bioavailability (%)

COc1cc(-c2nn(C3CCN(C4CCOCC4)CC3)c3ncnc(N)c23)ccc1NC(=O)c1cc2ccccc2n1C    93
COc1cc(-c2nn([C@H]3CC[C@H](N4CCN(C(C)=O)CC4)CC3)c3ncnc(N)c23)ccc1NC(=O)c1cc2ccccc2n1C    27

###

- Measurement Description: Plasma clearance in mouse
- Assay type: ADME, organism-based
Recorded Metric: clearance (mL/min/kg)

COc1cc(-c2nn([C@H]3CC[C@H](N4CCN(C(C)=O)CC4)CC3)c3ncnc(N)c23)ccc1NC(=O)c1cc2ccccc2n1C    25

###

- Assayed Target: Tyrosine-protein kinase Lck (Homo sapiens, UniProt P06239)
- Sequence (P06239 whole entry): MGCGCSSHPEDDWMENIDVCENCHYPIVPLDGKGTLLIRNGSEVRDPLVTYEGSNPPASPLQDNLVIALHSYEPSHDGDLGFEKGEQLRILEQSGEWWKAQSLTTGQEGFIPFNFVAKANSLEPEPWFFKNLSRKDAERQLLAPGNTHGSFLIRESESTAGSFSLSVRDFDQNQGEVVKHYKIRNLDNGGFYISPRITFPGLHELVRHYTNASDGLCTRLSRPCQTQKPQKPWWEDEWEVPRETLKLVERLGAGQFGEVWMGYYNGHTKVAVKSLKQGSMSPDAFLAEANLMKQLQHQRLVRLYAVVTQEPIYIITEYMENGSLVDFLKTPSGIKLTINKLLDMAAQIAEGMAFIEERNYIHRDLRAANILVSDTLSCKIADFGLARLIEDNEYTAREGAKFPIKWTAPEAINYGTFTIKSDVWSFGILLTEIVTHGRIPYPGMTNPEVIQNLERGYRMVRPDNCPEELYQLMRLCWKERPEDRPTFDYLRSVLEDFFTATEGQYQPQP
- Measurement Description: Inhibitory activity against lck
Some compounds, each annotated with its measured IC50.
Recorded Metric: IC50

COc1cc(-c2nn(C3CCN(C4CCOCC4)CC3)c3ncnc(N)c23)ccc1NC(=O)c1nc2ccccc2n1C    318 nM
COc1cc(-c2nn([C@H]3CC[C@H](N4CCN(C(C)=O)CC4)CC3)c3ncnc(N)c23)ccc1NC(=O)c1cc2ccccc2n1C    147 nM
COc1cc(-c2nn(C3CCNCC3)c3ncnc(N)c23)ccc1NC(=O)c1ccc(C(F)(F)F)cc1F    80 nM
COc1cc(-c2nn(C3CCN(C4CCOCC4)CC3)c3ncnc(N)c23)ccc1NC(=O)c1cc2cc(Cl)ccc2n1C    54 nM
COc1cc(-c2nn(C3CCN(C4CCOCC4)CC3)c3ncnc(N)c23)ccc1NC(=O)c1cc2cc(C#N)ccc2n1C    3480 nM
COc1cc(-c2nn(C3CCN(C4CCOCC4)CC3)c3ncnc(N)c23)ccc1NC(=O)c1ccc(C)cc1    8960 nM

###

- Assayed Target: Tyrosine-protein kinase Lck (Homo sapiens)
- Measurement Description: Inhibitory activity against anti-CD3 mAb-induced IL2 production in human whole blood
- Format: functional, tissue-based
pIC50: −log10 of the molar value.
Some compounds, each annotated with its measured pIC50.
Recorded Metric: pIC50

COc1cc(-c2nn(C3CCNCC3)c3ncnc(N)c23)ccc1NC(=O)c1ccc(C(F)(F)F)cc1F    7.30
COc1cc(-c2nn(C3CCN(C4CCOCC4)CC3)c3ncnc(N)c23)ccc1NC(=O)c1ccc(N(C)C)cc1    7.46
COc1cc(-c2nn(C3CCN(Cc4ccccc4)CC3)c3ncnc(N)c23)ccc1NC(=O)c1ccc(C(F)(F)F)cc1F    6.27
COc1cc(-c2nn(C3CCN(C4CCN(C)CC4)CC3)c3ncnc(N)c23)ccc1NC(=O)c1ccc(C(F)(F)F)cc1F    7.70
COc1cc(-c2nn(C3CCN(C4CCOCC4)CC3)c3ncnc(N)c23)ccc1NC(=O)c1nc2ccccc2n1C    7.27
COc1cc(-c2nn(C3CCN(C4CCOCC4)CC3)c3ncnc(N)c23)ccc1NC(=O)c1cc2cc(Cl)ccc2n1C    7.89
COc1cc(-c2nn(C3CCN(C4CCOCC4)CC3)c3ncnc(N)c23)ccc1NC(=O)c1ccc(C(F)(F)F)cc1F    7.40
COc1cc(-c2nn(C3CCN(C4CCOCC4)CC3)c3ncnc(N)c23)ccc1NC(=O)c1cc2ccccc2n1C    7.70
COc1cc(-c2nn([C@H]3CC[C@H](N4CCN(C(C)=O)CC4)CC3)c3ncnc(N)c23)ccc1NC(=O)c1cc2ccccc2n1C    7.10
COc1cc(-c2nn(C3CCN(C4CCN(C(C)=O)CC4)CC3)c3ncnc(N)c23)ccc1NC(=O)c1ccc(C(F)(F)F)cc1F    7.52
COc1cc(-c2nn(C3CCN(C)CC3)c3ncnc(N)c23)ccc1NC(=O)c1ccc(C(F)(F)F)cc1F    7.52
